Numbers sourced from ChEMBL document CHEMBL1255481.

- measured_on: Human immunodeficiency virus type 1 reverse transcriptase (Human immunodeficiency virus 1, UniProt Q72547, M230L)
- experiment_description: Inhibition of DNA-dependent DNA polymerase activity of HIV1 subtype B reverse transcriptase M230L mutant by gel-based primer extension assay
measured_metric: IC50
Please format your answer as a value with the unit trailing.

// returns reported IC50 for input Cc1cc(C)c(Nc2ccnc(Nc3ccc(C#N)cc3)n2)c(C)c1 1290 nM

###

- measured_on: UniProtKB Q72547
- experiment_description: Inhibition of DNA-dependent DNA polymerase activity of wild type HIV1 subtype B reverse transcriptase by gel-based primer extension assay
measured_metric: IC50 (nM)
Kindly provide the numeric value in nM only, without the unit symbol.

Please tell me: IC50 of Cc1cc(C)c(Nc2ccnc(Nc3ccc(C#N)cc3)n2)c(C)c1 [DAPIVIRINE] , system UniProtKB Q72547? 131

###

Below, each of the compounds is paired with its reported pEC50 value.
- System: Human immunodeficiency virus 1
- experiment_description: Antiviral activity against HIV 1 subtype B harboring wild type reverse transcriptase infected in human TZM-bl cells assessed as inhibition of viral growth by luciferase reporter gene assay
- Type: functional, organism-based
- condition_parameters: Human immunodeficiency virus 1, subtype B
# log scale: pEC50 equals minus log10 of the concentration in mol/L

Illustrative cases are given below, each with its answer.
smiles_code=Cc1cc(C#N)cc(C)c1Oc1nc(Nc2ccc(C#N)cc2)nc(N)c1Br numeric_value=8.90
smiles_code=Cc1ccnc2c1NC(=O)c1cccnc1N2C1CC1 numeric_value=6.79

Please tell me: pEC50 of Cc1cc(C)c(Nc2ccnc(Nc3ccc(C#N)cc3)n2)c(C)c1 , system Human immunodeficiency virus 1? 9.04

Now the compound O=C1Nc2ccc(Cl)cc2[C@@](C#CC2CC2)(C(F)(F)F)O1 8.45

###

- measured_on: Human immunodeficiency virus type 1 reverse transcriptase (Human immunodeficiency virus 1, UniProt Q72547, M230L)
- experiment_description: Inhibition of RNA-dependent DNA polymerase activity of HIV1 subtype B reverse transcriptase M230L mutant by filter-based filtration assay
measured_metric: pIC50
# log scale: pIC50 equals minus log10 of the concentration in mol/L

// returns reported pIC50 for input Cc1cc(C)c(Nc2ccnc(Nc3ccc(C#N)cc3)n2)c(C)c1 6.76
